The origin of these recorded values is patent US20050009889A1.

Property: Test D disease control rating (100 = 100% disease control, 0 = no control); scope: individual compounds
# Tested on: Phytophthora infestans
# Assay type: in vivo
# Test Context: tomato seedlings sprayed to run-off, inoculated next day; concentration not given
Endpoint Name: Test D disease control rating (100 = 100% disease control, 0 = no control) (%)

INSERT INTO assay_data (molecular_string, recorded_number) VALUES
  ('Cc1ccc(C(=O)NCc2ncc(C(F)(F)F)cc2Cl)c(O)n1', 7),
  ('O=C(NCc1ncc(C(F)(F)F)cc1Cl)c1ccc(C(F)(F)F)nc1', 25),
  ('O=C(NCc1ncc(C(F)(F)F)cc1Cl)c1ccc(C(F)(F)F)nc1Br', 32),
  ('Cc1nc(Cl)ccc1C(=O)NCc1ncc(C(F)(F)F)cc1Cl', 79),
  ('Cc1cc(Cl)c(C(=O)NCc2ncc(C(F)(F)F)cc2Cl)c(Cl)n1', 100),
  ('CCOc1ncccc1C(=O)NCc1ncc(C(F)(F)F)cc1Cl', 3),
  ('Cc1nc(C(F)(F)F)ccc1C(=O)NCc1ncc(C(F)(F)F)cc1Cl', 25),
  ('Cc1cnc(Cl)c(C(=O)NCc2ncc(C(F)(F)F)cc2Cl)c1Cl', 100),
  ('Cc1nc(C(F)(F)C(F)(F)F)ccc1C(=O)NCc1ncc(C(F)(F)F)cc1Cl', 16),
  ('COc1ncccc1C(=O)NCc1ncc(C(F)(F)F)cc1Cl', 7),
  ('Cc1ccc(C(=O)NCc2ncc(C(F)(F)F)cc2Cl)c(Cl)n1', 100),
  ('Nc1ncccc1C(=O)NCc1ncc(C(F)(F)F)cc1Cl', 7);

====

# System: Plasmopara viticola
# Procedure Text: Test E: preventive control of grape downy mildew on grape seedlings
# Type: in vivo
# Test Context: grape seedlings sprayed to run-off, inoculated next day; concentration not given
Endpoint Name: Test E disease control rating (100 = 100% disease control, 0 = no control) (%)

INSERT INTO results (compound, measure_unit, recorded_number) VALUES
  ('Cc1nc(Cl)ccc1C(=O)NCc1ncc(C(F)(F)F)cc1Cl [Compound 17]', '%', 16),
  ('COc1nc(C(F)(F)F)ccc1C(=O)NCc1ncc(C(F)(F)F)cc1Cl [Compound 16]', '%', 0),
  ('Nc1ncccc1C(=O)NCc1ncc(C(F)(F)F)cc1Cl [Compound 6]', '%', 0),
  ('CCOc1ncccc1C(=O)NCc1ncc(C(F)(F)F)cc1Cl [Compound 10]', '%', 23),
  ('O=C(NCc1ncc(C(F)(F)F)cc1Cl)c1ccc(C(F)(F)F)nc1 [Compound 18]', '%', 0),
  ('Cc1ccc(C(=O)NCc2ncc(C(F)(F)F)cc2Cl)c(O)n1 [Compound 13]', '%', 8),
  ('Cc1cc(Cl)c(C(=O)NCc2ncc(C(F)(F)F)cc2Cl)c(Cl)n1 [Compound 5]', '%', 100),
  ('O=C(NCc1ncc(C(F)(F)F)cc1Cl)c1ccc(C(F)(F)F)nc1Br [Compound 12]', '%', 0),
  ('O=C(NCc1ncc(C(F)(F)F)cc1Cl)c1cncc(Br)c1 [Compound 7]', '%', 0),
  ('Cc1nc(C(F)(F)C(F)(F)F)ccc1C(=O)NCc1ncc(C(F)(F)F)cc1Cl [Compound 15]', '%', 8),
  ('Cc1cnc(Cl)c(C(=O)NCc2ncc(C(F)(F)F)cc2Cl)c1Cl [Compound 20]', '%', 100),
  ('Cc1ccc(C(=O)NCc2ncc(C(F)(F)F)cc2Cl)c(Cl)n1 [Compound 11]', '%', 98),
  ('CC(NC(=O)c1c(Cl)ccnc1Cl)c1ncc(C(F)(F)F)cc1Cl (single isomer, unassigned; (+)) [Compound 22]', '%', 100),
  ('Cc1nc(C(F)(F)F)ccc1C(=O)NCc1ncc(C(F)(F)F)cc1Cl [Compound 14]', '%', 8),
  ('O=C(NCc1ncc(C(F)(F)F)cc1Cl)c1cccnc1O [Compound 8]', '%', 8),
  ('COc1ncccc1C(=O)NCc1ncc(C(F)(F)F)cc1Cl [Compound 9]', '%', 24);

====

# Tested on: Pyricularia oryzae
# Format: in vivo
# Test Context: rice seedlings sprayed to run-off, inoculated next day; concentration not given
Endpoint Name: Test C disease control rating (100 = 100% disease control, 0 = no control) (%)

INSERT INTO measurements (compound, target_system, recorded_number) VALUES
  ('O=C(NCc1ncc(C(F)(F)F)cc1Cl)c1ccc(C(F)(F)F)nc1', 'Pyricularia oryzae', 0),
  ('Cc1nc(Cl)ccc1C(=O)NCc1ncc(C(F)(F)F)cc1Cl', 'Pyricularia oryzae', 13),
  ('CCOc1ncccc1C(=O)NCc1ncc(C(F)(F)F)cc1Cl', 'Pyricularia oryzae', 0),
  ('Cc1ccc(C(=O)NCc2ncc(C(F)(F)F)cc2Cl)c(O)n1', 'Pyricularia oryzae', 0),
  ('Cc1cnc(Cl)c(C(=O)NCc2ncc(C(F)(F)F)cc2Cl)c1Cl', 'Pyricularia oryzae', 0),
  ('O=C(NCc1ncc(C(F)(F)F)cc1Cl)c1cncc(Br)c1', 'Pyricularia oryzae', 74),
  ('COc1ncccc1C(=O)NCc1ncc(C(F)(F)F)cc1Cl', 'Pyricularia oryzae', 0),
  ('Cc1nc(C(F)(F)F)ccc1C(=O)NCc1ncc(C(F)(F)F)cc1Cl', 'Pyricularia oryzae', 87),
  ('O=C(NCc1ncc(C(F)(F)F)cc1Cl)c1ccc(C(F)(F)F)nc1Br', 'Pyricularia oryzae', 80),
  ('Cc1ccc(C(=O)NCc2ncc(C(F)(F)F)cc2Cl)c(Cl)n1', 'Pyricularia oryzae', 90),
  ('O=C(NCc1ncc(C(F)(F)F)cc1Cl)c1cccnc1O', 'Pyricularia oryzae', 0),
  ('Cc1nc(C(F)(F)C(F)(F)F)ccc1C(=O)NCc1ncc(C(F)(F)F)cc1Cl', 'Pyricularia oryzae', 88),
  ('CC(NC(=O)c1c(Cl)ccnc1Cl)c1ncc(C(F)(F)F)cc1Cl (single isomer, unassigned; (+))', 'Pyricularia oryzae', 0),
  ('Nc1ncccc1C(=O)NCc1ncc(C(F)(F)F)cc1Cl', 'Pyricularia oryzae', 0),
  ('COc1nc(C(F)(F)F)ccc1C(=O)NCc1ncc(C(F)(F)F)cc1Cl', 'Pyricularia oryzae', 0);

====

Some compounds, each annotated with its measured Test D disease control rating (100 = 100% disease control, 0 = no control).
# System: Phytophthora infestans
# Format: in vivo
# Test Context: tomato seedlings sprayed to run-off, inoculated next day; concentration not given
Endpoint Name: Test D disease control rating (100 = 100% disease control, 0 = no control)

INSERT INTO measurements (compound, result) VALUES
  ('O=C(NCc1ncc(C(F)(F)F)cc1Cl)c1cccnc1O [Compound 8]', '7%'),
  ('CC(NC(=O)c1c(Cl)ccnc1Cl)c1ncc(C(F)(F)F)cc1Cl (single isomer, unassigned; (+)) [Compound 22]', '100%'),
  ('COc1nc(C(F)(F)F)ccc1C(=O)NCc1ncc(C(F)(F)F)cc1Cl [Compound 16]', '7%'),
  ('O=C(NCc1ncc(C(F)(F)F)cc1Cl)c1cncc(Br)c1 [Compound 7]', '16%');
